Please provide measured apparent KD of MS2 coat protein for the entries that follow.
Tested on: MS2 coat protein
Assay: apparent KD of MS2 coat protein; designed switch direction (-1 OFF switch, 1 ON switch): 1; higher = weaker reporter binding
Conditions: input ligand: FMN 200 uM
Form entry: enter the amount, then its unit.

Look over these answered cases.
GGUACUAACACAGGAUAUGCUAUCCUUUGGGUAGCAGAAGGGUGGUACAUGAGGAUCACCCAUGUGGUGCCAGGGCGUGAGCCC [JL SSNG1 1.96] (Eterna round: R96, puzzle: Same State NG 1)    0.408 µM
GCUAGGAAUUAAGCCAACAUGAGGAUCACCCAUGUAUGUUGGUAGGAUAUCGUUUGCAAAGCAAACGAGAAGGGCUAACCUAGC [Mat - Same State NG 3 - JL Mod - D72] (Eterna round: R96, puzzle: Same State NG 3)    0.0809 µM
GCGAGCGUACUUGCAGACAUGAGGAUCACCCAUGUAACUGGACAGGAUAUGGUACCGUUUCGGUACCAGAAGGGUUUAUCAUGU [JL SSNG3 3.55] (Eterna round: R96, puzzle: Same State NG 3)    0.167 µM

Here's the next entry for you.
query: Specify reported apparent KD of MS2 coat protein for the sequence shown: GAGAGAGGGCGAGGAUAUUCGGUGAUAAUGAUGGGAGAAGGCGCAGACAUGAGGAUCACCCAUGUGGGAAUAAUCCAGAGAGAG [Parity 13 - Jieux - Same State NG 1] (Eterna round: R96, puzzle: Same State NG 1)
result: 0.151 µM
